Every entry's value here was drawn from PubChem BioAssay.

Listing: z-score of selected compounds
- TEST_PROTOCOL: JC-1 mitochondrial signal, unstimulated adipocytes – cell-based, JC-1 fluorescence, 3T3-L1 adipocytes, 24 h, 100 nL compound, profiling panel (AID 1168); also: test concentration not given here
- EXPERIMENTAL_CONTEXT: JC-1 mitochondrial fluorescence, higher = more signal, called active from +8 up or from −8 down
API doc: respond with a numeric literal and nothing else, no unit.

Check out these entries, answers already filled in.
[[record]]
compound = "O=C(NCC(O)CO)[C@@]1(CCS(=O)(=O)c2ccccc2)N=C(c2ccc(OCCCO)cc2)O[C@H]1c1ccccc1 (some centres undefined)"
readout_number = -0.874

[[record]]
compound = "COCCOC(=O)N1C(=O)[C@@]2(c3cc(C#CCNC(N)=O)ccc31)[C@H](C(=O)Nc1nc3ccccc3s1)[C@H]1C(=O)O[C@H](c3ccccc3)[C@H](c3ccccc3)N1[C@@H]2c1ccccc1OCCO"
readout_number = 2.4

[[record]]
compound = "O=C1c2ccccc2[C@@]2(Cc3ccccc3N(Cc3ccccc3)C2=O)[C@H](c2ccc(CO)cc2)N1Cc1ccccc1Cl"
readout_number = -0.407


Supply z-score value. Item: COc1ccc([Si](C)(C)[C@@H]2[C@@H](CC(=O)N(CCO)Cc3ccccc3)O[C@]3(C(=O)N(Cc4ccc(I)cc4)c4ccccc43)[C@H]2C)cc1
0.448

----------
- TEST_PROTOCOL: probe aWnt5a binding to arrayed compounds – biochemical, biotinylated probe, 635/667 nm fluorescence, primary screen (AID 1113);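 also: score merges 667 nm fluorescence intensity with signal-to-noise per printed feature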
- EXPERIMENTAL_CONTEXT: small-molecule microarray, higher = more signal
Output Fulfilled for composite z-score not less than -0.08; output Not fulfilled otherwise.

[[record]]
compound = "O=C1[C@H]2C=C(I)[C@H](C[C@@H]2OCCCCCCO)[C@@]12CO2"
assigned_category = "Not fulfilled"

[[record]]
compound = "O=C1C2C=CC(C(O)c3ccc([N+](=O)[O-])cc3)N(Nc3ccccc3F)C2C(=O)N1c1ccccc1 (stereo unspecified)"
assigned_category = "Fulfilled"

[[record]]
compound = "CCC(CC)C(O)C1C=CC2C(=O)N(c3ccccc3)C(=O)C2N1Nc1ccccc1F (stereo unspecified)"
assigned_category = "Fulfilled"


Can COC(=O)[C@H](Cc1ccc(O)cc1)N[C@@H](/C=C/C1CC1)[C@H](O)Cc1ccccc1 be said to have composite z-score at or above -0.08?
Not fulfilled

Tell me whether composite z-score is at least -0.08 here: CC(C)(C)N1CC=CC23O[C@@H]4/C=C\CCCOC(=O)C4[C@H]2C(=O)N(CCCCCO)[C@@H]3C1=O (stereo partly specified)
Not fulfilled

Exam item: decide whether the reported composite z-score for CCN(CC)c1ccc(N2CC=CC34O[C@@H]5C=CCCOC(=O)C5[C@H]3C(=O)N(C(C)CO)[C@@H]4C2=O)cc1 (stereo partly specified) is at least -0.08.
Fulfilled

For this compound, is measured composite z-score -0.08 or higher? C=CC[C@]1(C(=O)NCC(O)CO)COC(c2ccc(OCCCO)cc2)=N1 (stereo partly specified)
Fulfilled

Test whether the compound CN1C(=O)C2C(C1=O)C1C=C(CCCO)C2C(C2CC2)N1Cc1cccc(OC(F)(F)F)c1 (stereo unspecified) records composite z-score of -0.08 or higher.
Not fulfilled

Check if composite z-score >= -0.08 (inclusive). Item: COC(=O)[C@@]1(Cc2ccccc2)[C@H]2c3cc(C(=O)N(C)C)n(CCO)c3C[C@H]2CN1C(=O)c1ccccc1
Fulfilled

Form field: composite z-score at least -0.08? Entry: Cc1ccc(S[C@]2(C(=O)NC3CC3)CC(=O)N(C(C)C)[C@@H]2c2ccc(CO)cc2I)cc1
Fulfilled

Answer whether composite z-score of O=C(NC1CC1)[C@@H]1c2ccccc2C(=O)N(CC23CC4CC(CC(C4)C2)C3)[C@H]1c1ccc(CO)cc1 is greater than or equal to -0.08.
Not fulfilled

# check: composite z-score of CN(C)CCCCNC(=O)[C@H]1C[C@H]2C(=O)N3CCC[C@H]3C(=O)N2[C@H]1c1cccc(OCCO)c1 is greater than or equal to -0.08
Not fulfilled

Given the entry CC(=O)OCC1C2CC[C@H]3C(OCc4ccc(F)cc4C(F)(F)F)OC[C@]4(C)[C@H]3C2=C(CN4C(=O)OC(C)(C)C)[C@H](C)C1COC(C)=O (stereo partly specified) , answer whether its composite z-score meets or surpasses -0.08.
Fulfilled

Is composite z-score for COC(=O)C(CC#Cc1ccc2c(c1)[C@]1(C(=O)N2)[C@H](c2ccc(OCCO)cc2)N2[C@H](c3ccccc3)[C@H](c3ccccc3)OC(=O)[C@H]2[C@@H]1C(=O)N1CCCCCCC1)C(=O)OC at or above -0.08?
Fulfilled

Check if composite z-score >= -0.08 (inclusive). Item: O=C1O[C@H](Cc2ccccc2)[C@@H]2[C@H]3C=CCCC=C3CN2[C@H]1Cc1ccc(O)cc1
Not fulfilled

Quick check: does COCCCNC(=O)[C@@]1(CCC(=O)OC(C)(C)C)COC(c2ccc(OCCCO)cc2)=N1 have composite z-score greater than or equal to -0.08?
Not fulfilled
